- System: His-tagged human recombinant kinase full-length Akt1 (Homo sapiens)
- Construct: His-tagged human recombinant kinase full-length Akt1; His
- Test name: Akt1 kinase assay (TR-FRET)
- Applied conditions: 10 μM ATP, 60 min at 22° C., read-out: Akt1, median IC50
Each entry falls in a class defined on IC50; the bands are b0: < 900 nM; b1: ≥ 900 nM and < 3000 nM; b2: ≥ 3000 nM

Solved entries (count: 10):
NC1(c2ccc(-c3nc4nccn4c(N4CCOCC4)c3-c3ccccc3)cc2)CCC1 [Example 2-3] | b2
Cc1nc2nc(-c3ccc(C4(N)CCCC4)cc3)c(-c3ccccc3)cn2n1 [Example 1-1] | b1
Cc1nc2nc(-c3ccc(C4(N)CCC4)cc3)c(-c3ccccc3)c(C)n2n1 [Example 1-3] | b0
NC1(c2ccc(-c3nc4ncc(-c5ccc(F)cc5)n4cc3-c3ccccc3)cc2)CCC1 [Example 6-0] | b1
CNc1c(-c2ccccc2)c(-c2ccc(C3(N)CCC3)cc2)nc2nc(C3CC3)nn12 [Example 5-10] | b1
NC(=O)c1cccc(-c2cnc3nc(-c4ccc(C5(N)CCC5)cc4)c(-c4ccccc4)cn23)c1 [Example 6-2] | b0
COCCCNc1c(-c2ccccc2)c(-c2ccc(C3(N)CCC3)cc2)nc2nc(C)nn12 [Example 3-4] | b2
CC(C)Nc1nc2nc(-c3ccc(C4(N)CCC4)cc3)c(-c3ccccc3)cn2n1 [Example 5-5] | b1
NC1(c2ccc(-c3nc4nc(-c5ccccn5)nn4c(N4CCOCC4)c3-c3ccccc3)cc2)CCC1 [Example 3-2] | b2
COC[C@H](C)Nc1c(-c2ccccc2)c(-c2ccc(C3(N)CCC3)cc2)nc2nc(C)cn12 [Example 2-6] | b2

Assign a category based on measured IC50 for CC(C)(C)Nc1c(-c2ccccc2)c(-c2ccc(C3(N)CCC3)cc2)nc2nc(-c3ccccn3)nn12 [Example 3-0] and give only the class name.
b1

Assign a category based on measured IC50 for Cc1nc2nc(-c3ccc(C4(N)CCC4)cc3)c(-c3ccccc3)c(NCC3CC3)n2n1 [Example 5-9] and give only the class name.
b0

Assign a category based on measured IC50 for NC1(c2ccc(-c3nc4nc(Nc5ccccc5)nn4cc3-c3ccccc3)cc2)CCC1 [Example 5-4] and give only the class name.
b0

Assign a category based on measured IC50 for NC1(c2ccc(-c3nc4nc(-c5ccccn5)nn4c(NC4CC4)c3-c3ccccc3)cc2)CCC1 [Example 3-1] and give only the class name.
b1

Assign a category based on measured IC50 for Cc1nc2nc(-c3ccc(C4(N)CCC4)cc3)c(-c3ccccc3)c(NC(C)C)n2n1 [Example 5-7] and give only the class name.
b0

====

- System: His-tagged human recombinant kinase full-length Akt2 (Homo sapiens, UniProt P31751)
- Construct: His-tagged human recombinant kinase full-length Akt2; His
- Sequence (P31751 whole entry): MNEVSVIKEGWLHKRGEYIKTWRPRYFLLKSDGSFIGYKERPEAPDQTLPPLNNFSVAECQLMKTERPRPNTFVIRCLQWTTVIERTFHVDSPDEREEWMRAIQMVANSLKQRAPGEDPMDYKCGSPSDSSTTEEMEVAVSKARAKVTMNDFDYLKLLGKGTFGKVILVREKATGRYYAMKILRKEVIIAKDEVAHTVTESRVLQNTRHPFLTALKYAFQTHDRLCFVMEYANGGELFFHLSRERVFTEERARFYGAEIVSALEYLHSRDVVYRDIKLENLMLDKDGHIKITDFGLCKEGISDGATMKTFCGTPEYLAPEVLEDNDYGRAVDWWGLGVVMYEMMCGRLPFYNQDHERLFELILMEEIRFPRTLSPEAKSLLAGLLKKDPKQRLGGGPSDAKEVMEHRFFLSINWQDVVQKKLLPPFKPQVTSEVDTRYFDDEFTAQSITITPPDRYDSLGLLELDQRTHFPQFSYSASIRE
- Test name: Akt2 kinase assay (TR-FRET)
- Applied conditions: 10 μM ATP, 60 min at 22° C., read-out: Akt2, median IC50
Threshold check on IC50: strictly below 1 µM is Yes; on or above 1 µM is No.

Solved entries (count: 5):
Cc1nc2nc(-c3ccc(C4(N)CCC4)cc3)c(-c3ccccc3)cn2n1 | Yes
CS(=O)(=O)c1ccc(-c2cnc3nc(-c4ccc(C5(N)CCC5)cc4)c(-c4ccccc4)cn23)cc1 | Yes
NC1(c2ccc(-c3nc4nccn4c(NC4CC4)c3-c3ccccc3)cc2)CCC1 | No
Cc1nc2nc(-c3ccc(C4(N)CCCC4)cc3)c(-c3ccccc3)cn2n1 | No
NC1(c2ccc(-c3nc4ncc(-c5ccc(F)cc5)n4cc3-c3ccccc3)cc2)CCC1 | Yes

Please check: IC50 for NC1(c2ccc(-c3nc4nccn4c(N4CCOCC4)c3-c3ccccc3)cc2)CCC1 , strictly under 1 µM or not?
No

Please check: IC50 for NC1(c2ccc(-c3nc4ncc(-c5ccc(F)c(CO)c5)n4cc3-c3ccccc3)cc2)CCC1 , strictly under 1 µM or not?
Yes

Please check: IC50 for CNc1nc2nc(-c3ccc(C4(N)CCC4)cc3)c(-c3ccccc3)cn2n1 , strictly under 1 µM or not?
Yes

Please check: IC50 for Cc1nc2nc(-c3ccc(C4(N)CCC4)cc3)c(-c3ccccc3)c(NC3CC3)n2n1 , strictly under 1 µM or not?
Yes

Please check: IC50 for Cn1cc(-c2nc3nc(-c4ccc(C5(N)CCC5)cc4)c(-c4ccccc4)cn3n2)cn1 , strictly under 1 µM or not?
Yes

Please check: IC50 for COCCNc1c(-c2ccccc2)c(-c2ccc(C3(N)CCC3)cc2)nc2nc(C)nn12 , strictly under 1 µM or not?
No

Please check: IC50 for COC[C@H](C)Nc1c(-c2ccccc2)c(-c2ccc(C3(N)CCC3)cc2)nc2nc(C)cn12 , strictly under 1 µM or not?
No

Please check: IC50 for NC1(c2ccc(-c3nc4nc(-c5ccccn5)nn4c(N4CCOCC4)c3-c3ccccc3)cc2)CCC1 , strictly under 1 µM or not?
No

Please check: IC50 for Cc1nc2nc(-c3ccc(C4(N)CCC4)cc3)c(-c3ccccc3)c(NCCc3ccc(F)cc3)n2n1 , strictly under 1 µM or not?
No

====

- System: His-tagged human recombinant kinase full-length Akt2 (Homo sapiens)
- Construct: His-tagged human recombinant kinase full-length Akt2; His; purchased Invitrogen PV 3975; host or cells: insect cells
- Test name: Akt2 kinase assay (TR-FRET)
- Type: biochemical
- Applied conditions: 10 μM ATP, 60 min at 22° C., read-out: Akt2, median IC50
pIC50: −log10 of the molar value.
I would appreciate it if you labelled entries True when pIC50 is 6 or higher, otherwise False.

Solved entries (count: 5):
NC1(c2ccc(-c3nc4nc(C5CC5)nn4cc3-c3ccccc3)cc2)CCC1 | True
CC(C)Nc1nc2nc(-c3ccc(C4(N)CCC4)cc3)c(-c3ccccc3)cn2n1 | True
NC1(c2ccc(-c3nc4nc(NCc5ccncc5)nn4cc3-c3ccccc3)cc2)CCC1 | False
NC1(c2ccc(-c3nc4nccn4cc3-c3ccccc3)cc2)CCC1 | False
NC1(c2ccc(-c3nc4nc(-c5ccccn5)nn4c(NC4CC4)c3-c3ccccc3)cc2)CCC1 | False

Threshold query (pIC50 >= 6) on CC(C)(C)Nc1c(-c2ccccc2)c(-c2ccc(C3(N)CCC3)cc2)nc2nc(-c3ccccn3)nn12
True

Threshold query (pIC50 >= 6) on Cc1nc2nc(-c3ccc(C4(N)CC4)cc3)c(-c3ccccc3)cn2n1
False

Threshold query (pIC50 >= 6) on Cc1nc2nc(-c3ccc(C4(N)CCC4)cc3)c(-c3ccccc3)c(NC(C)C)n2n1
True

Threshold query (pIC50 >= 6) on NC1(c2ccc(-c3nc4ncc(-c5cn[nH]c5)n4cc3-c3ccccc3)cc2)CCC1
True

Threshold query (pIC50 >= 6) on Cc1nc2nc(-c3ccc(C4(N)CCC4)cc3)c(-c3ccccc3)c(NCC3CC3)n2n1
True

Threshold query (pIC50 >= 6) on Cc1nc2nc(-c3ccc(C4(N)CCC4)cc3)c(-c3ccccc3)c(NC3CCC3)n2n1
True

====

- System: His-tagged human recombinant kinase full-length Akt1 (Homo sapiens, UniProt P31749)
- Construct: His-tagged human recombinant kinase full-length Akt1; His
- Sequence (P31749 whole entry): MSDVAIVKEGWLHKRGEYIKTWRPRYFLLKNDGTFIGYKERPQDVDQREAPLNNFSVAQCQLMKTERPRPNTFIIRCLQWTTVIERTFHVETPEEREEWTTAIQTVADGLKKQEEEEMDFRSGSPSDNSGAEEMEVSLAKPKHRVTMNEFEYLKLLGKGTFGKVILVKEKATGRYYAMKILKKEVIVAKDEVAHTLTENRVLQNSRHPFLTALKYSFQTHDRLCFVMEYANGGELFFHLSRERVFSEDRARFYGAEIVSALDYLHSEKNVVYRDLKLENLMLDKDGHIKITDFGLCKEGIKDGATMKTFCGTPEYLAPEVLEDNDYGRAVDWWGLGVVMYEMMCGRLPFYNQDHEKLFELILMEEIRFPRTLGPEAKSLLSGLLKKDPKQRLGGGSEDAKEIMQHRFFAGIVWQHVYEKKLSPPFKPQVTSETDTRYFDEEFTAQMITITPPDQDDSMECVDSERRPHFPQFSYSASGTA
- Test name: Akt1 kinase assay (TR-FRET)
- Applied conditions: 10 μM ATP, 60 min at 22° C., read-out: Akt1, median IC50
Assay endpoint: IC50 (µM)
// units = µM; emit number, no label

The cases that follow already have their IC50 on record.
NC1(c2ccc(-c3nc4nc(NCc5ccncc5)nn4cc3-c3ccccc3)cc2)CCC1 [Example 5-6] | 5.65
NC1(c2ccc(-c3nc4nc(C5CC5)nn4c(N[C@H]4CC[C@H](O)CC4)c3-c3ccccc3)cc2)CCC1 [Example 5-15] | 11.6
Cc1cn2cc(-c3ccccc3)c(-c3ccc(C4(N)CCC4)cc3)nc2n1 [Example 2-1] | 0.474

So what's the measured IC50 for this one? NC1(c2ccc(-c3nc4nccn4c(NC4CC4)c3-c3ccccc3)cc2)CCC1 [Example 2-2]
2.05

====

- System: His-tagged human recombinant kinase full-length Akt2 (Homo sapiens)
- Construct: His-tagged human recombinant kinase full-length Akt2; His
- Test name: Akt2 kinase assay (TR-FRET)
- Applied conditions: 10 μM ATP, 60 min at 22° C., read-out: Akt2, median IC50
Assay endpoint: pIC50
Note on units: pIC50 is unitless, being -log10 of a concentration expressed in mol/L.

So what's the measured pIC50 for this one? Cc1cn2cc(-c3ccccc3)c(-c3ccc(C4(N)CCC4)cc3)nc2n1 [Example 2-1]
6.31

So what's the measured pIC50 for this one? Cc1cn2c(NC3CC3)c(-c3ccccc3)c(-c3ccc(C4(N)CCC4)cc3)nc2n1 [Example 2-5]
6.27

So what's the measured pIC50 for this one? NC(=O)c1cccc(-c2cnc3nc(-c4ccc(C5(N)CCC5)cc4)c(-c4ccccc4)cn23)c1 [Example 6-2]
6.69

So what's the measured pIC50 for this one? COCCCNc1c(-c2ccccc2)c(-c2ccc(C3(N)CCC3)cc2)nc2nc(C)nn12 [Example 3-4]
5.03

So what's the measured pIC50 for this one? CNc1c(-c2ccccc2)c(-c2ccc(C3(N)CCC3)cc2)nc2nc(C)nn12 [Example 5-13]
5.65

So what's the measured pIC50 for this one? NC1(c2ccc(-c3nc4nc(Nc5ccccc5)nn4cc3-c3ccccc3)cc2)CCC1 [Example 5-4]
6.71

So what's the measured pIC50 for this one? CCNc1nc2nc(-c3ccc(C4(N)CCC4)cc3)c(-c3ccccc3)cn2n1 [Example 5-1]
6.30
